These records show IC50 for c-MET (Homo sapiens).

{"columns": ["COMPOUND", "IC50"],
 "data": [
  ["CP(C)(=O)c1cccc(-c2cnc3nnn(Cc4ccc5nccn5c4)c3n2)c1 [Example 7]", "0.011 to 0.02 µM"],
  ["CP(C)(=O)c1ccc(-c2cnc3nnn(Cc4ccc5ncccc5c4)c3n2)c(F)c1 [Example 4]", "0.011 to 0.02 µM"],
  ["CP(C)(=O)c1ccc(-c2cnc3nnn(Cc4ccc5c(c4)CCO5)c3n2)cc1 [Example 16]", "0.011 to 0.02 µM"],
  ["CP(C)(=O)c1ccc(-c2cnc3nnn(Cc4ccc5ncccc5c4)c3n2)cc1 [Example 1]", "< 0.01 µM"],
  ["CP(C)(=O)c1ccc(-c2cnc3nnn(Cc4ccc5nccn5c4)c3n2)cc1 [Example 6]", "< 0.01 µM"],
  ["CP(C)(=O)c1cnc2nnn(Cc3ccc4ncccc4c3)c2n1 [Example 18]", "1 to 6 µM"],
  ["CCOP(C)(=O)Cc1ccc(-c2cnc3nnn(Cc4ccc5ncccc5c4)c3n2)cc1 (stereo not drawn) [Example 2]", "< 0.01 µM"],
  ["CP(C)(=O)c1ccc(-c2cnc3nnn(Cc4ccc5ncc(F)n5c4)c3n2)cc1 [Example 17]", "0.021 to 0.1 µM"],
  ["CC(c1ccc2nccn2c1)n1nnc2ncc(-c3ccc(P(C)(C)=O)cc3)nc21 (stereo not drawn) [Example 15]", "< 0.01 µM"]
]}

----------
SYSTEM_TESTED: c-MET (Homo sapiens)
Sequence (P08581 25-1390): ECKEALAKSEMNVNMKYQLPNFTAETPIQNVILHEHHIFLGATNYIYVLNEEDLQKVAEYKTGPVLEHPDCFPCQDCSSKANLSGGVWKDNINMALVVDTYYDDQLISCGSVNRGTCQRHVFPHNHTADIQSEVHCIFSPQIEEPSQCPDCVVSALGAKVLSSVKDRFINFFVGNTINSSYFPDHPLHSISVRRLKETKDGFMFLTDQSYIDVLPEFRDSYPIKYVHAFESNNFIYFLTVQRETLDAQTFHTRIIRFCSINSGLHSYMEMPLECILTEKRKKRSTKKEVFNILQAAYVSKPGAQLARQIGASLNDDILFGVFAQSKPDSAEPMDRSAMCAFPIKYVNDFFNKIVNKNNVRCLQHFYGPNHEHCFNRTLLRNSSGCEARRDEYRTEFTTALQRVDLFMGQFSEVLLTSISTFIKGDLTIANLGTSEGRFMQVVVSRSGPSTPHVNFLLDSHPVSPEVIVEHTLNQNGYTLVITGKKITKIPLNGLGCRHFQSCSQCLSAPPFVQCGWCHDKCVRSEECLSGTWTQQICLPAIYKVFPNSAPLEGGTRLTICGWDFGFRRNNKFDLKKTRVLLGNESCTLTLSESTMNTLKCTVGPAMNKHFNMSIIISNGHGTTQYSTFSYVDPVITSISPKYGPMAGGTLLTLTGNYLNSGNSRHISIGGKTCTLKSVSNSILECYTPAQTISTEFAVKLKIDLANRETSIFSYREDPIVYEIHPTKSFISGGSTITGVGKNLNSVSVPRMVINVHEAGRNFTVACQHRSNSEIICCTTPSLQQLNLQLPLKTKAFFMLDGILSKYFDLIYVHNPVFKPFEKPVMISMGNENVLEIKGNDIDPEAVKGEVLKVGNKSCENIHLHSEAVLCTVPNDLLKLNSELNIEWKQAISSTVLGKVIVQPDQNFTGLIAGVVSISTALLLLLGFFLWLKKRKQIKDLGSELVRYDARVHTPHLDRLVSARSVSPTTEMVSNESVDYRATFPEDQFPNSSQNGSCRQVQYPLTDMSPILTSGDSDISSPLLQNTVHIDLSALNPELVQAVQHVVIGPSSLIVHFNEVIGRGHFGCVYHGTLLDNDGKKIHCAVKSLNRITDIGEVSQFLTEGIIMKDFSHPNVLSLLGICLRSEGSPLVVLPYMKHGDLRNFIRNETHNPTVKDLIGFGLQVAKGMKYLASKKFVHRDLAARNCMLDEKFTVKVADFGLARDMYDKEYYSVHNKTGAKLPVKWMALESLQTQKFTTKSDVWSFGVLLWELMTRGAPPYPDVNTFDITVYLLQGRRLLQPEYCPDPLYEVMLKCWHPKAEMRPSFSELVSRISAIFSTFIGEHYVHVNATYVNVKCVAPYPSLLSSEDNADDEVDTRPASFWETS
pIC50: −log10 of the molar value.

{"columns": ["SMI", "pIC50"],
 "data": [
  ["CP(=O)(O)Cc1ccc(-c2cnc3nnn(Cc4ccc5ncccc5c4)c3n2)cc1", "> 8.00"],
  ["CP(C)(=O)c1cccc(-c2ccc3nnc(C(F)(F)c4ccc5nccn5c4)n3n2)c1", "7.00 to 7.68"],
  ["Cn1cc2cc(Cn3nnc4ncc(-c5ccc(P(C)(C)=O)cc5)nc43)c(F)cc2n1", "> 8.00"]
]}
